test_details: Oral pharmacokinetics of CSE constituents in rat plasma (UFLC-MS/MS)
Format: in vivo, Sprague–Dawley rats
conditions: male, Sprague-Dawley, single oral CSE 40 mg/kg, n = 6, mean ± SEM
Label Y for high-side AUC(0-inf) (at or above 2000 ng·h/mL) and N for low-side AUC(0-inf) (below it).

Worked set:
molecule	group_label
CC(/C=C/C=C(\C)C(=O)OC1OC(CO)C(O)C(O)C1O)=C\C=C\C=C(C)\C=C\C=C(/C)C(=O)OC1OC(COC2OC(CO)C(O)C(O)C2O)C(O)C(O)C1O (stereo not drawn) [T3C, trans-3-Gg-crocin]	N
CC(/C=C/C=C(\C)C(=O)OC1OC(COC2OC(CO)C(O)C(O)C2O)C(O)C(O)C1O)=C\C=C\C=C(C)\C=C\C=C(/C)C(=O)OC1OC(COC2OC(CO)C(O)C(O)C2O)C(O)C(O)C1O (stereo not drawn) [T4C, trans-4-GG-crocin]	N
CC(/C=C/C=C(\C)C(=O)OC1OC(CO)C(O)C(O)C1O)=C\C=C\C=C(C)\C=C\C=C(/C)C(=O)OC1OC(CO)C(O)C(O)C1O (stereo not drawn) [T2C, trans-2-gg-crocin]	N
CC(=C/C=C/C=C(C)/C=C/C=C(\C)C(=O)OC1OC(COC2OC(CO)C(O)C(O)C2O)C(O)C(O)C1O)/C=C/C=C(\C)C(=O)OC1OC(COC2OC(CO)C(O)C(O)C2O)C(O)C(O)C1O (stereo not drawn) [C4C, cis-4-GG-crocin]	N
CC(/C=C/C=C(\C)C(=O)O)=C\C=C\C=C(C)\C=C\C=C(/C)C(=O)O [TCT, trans crocetin]	Y

Now let's try a different one.
Exercise: Hi, just wondering whether CC1=C(C=O)C(C)(C)C[C@H](O[C@@H]2O[C@H](CO)[C@@H](O)[C@H](O)[C@H]2O)C1 shows AUC(0-inf) of 2000 ng·h/mL or higher.
Key: Y

----------
test_details: Oral pharmacokinetics of CSE constituents in rat plasma (UFLC-MS/MS)
Assay type: in vivo, Sprague–Dawley rats
conditions: single oral CSE 40 mg/kg, n = 6, mean ± SEM
attribute_measured: Vd (L/kg)
Respond numerically; units are L/kg and should not be typed.

For orientation, consider the following solved cases.
molecule	scale_unit	Vd
CC(=C/C=C/C=C(C)/C=C/C=C(\C)C(=O)OC1OC(COC2OC(CO)C(O)C(O)C2O)C(O)C(O)C1O)/C=C/C=C(\C)C(=O)OC1OC(COC2OC(CO)C(O)C(O)C2O)C(O)C(O)C1O (stereo not drawn) [C4C, cis-4-GG-crocin]	L/kg	4.29
CC(/C=C/C=C(\C)C(=O)OC1OC(CO)C(O)C(O)C1O)=C\C=C\C=C(C)\C=C\C=C(/C)C(=O)OC1OC(CO)C(O)C(O)C1O (stereo not drawn) [T2C, trans-2-gg-crocin]	L/kg	2.006

Exercise: Specify measured Vd for CC(/C=C/C=C(\C)C(=O)OC1OC(COC2OC(CO)C(O)C(O)C2O)C(O)C(O)C1O)=C\C=C\C=C(C)\C=C\C=C(/C)C(=O)OC1OC(COC2OC(CO)C(O)C(O)C2O)C(O)C(O)C1O (stereo not drawn) [T4C, trans-4-GG-crocin] .
Key: 69.250

Exercise: Specify measured Vd for CC(/C=C/C=C(\C)C(=O)OC1OC(CO)C(O)C(O)C1O)=C\C=C\C=C(C)\C=C\C=C(/C)C(=O)OC1OC(COC2OC(CO)C(O)C(O)C2O)C(O)C(O)C1O (stereo not drawn) [T3C, trans-3-Gg-crocin] .
Key: 325.573

Exercise: Specify measured Vd for CC1=C(C=O)C(C)(C)C[C@H](O[C@@H]2O[C@H](CO)[C@@H](O)[C@H](O)[C@H]2O)C1 [PIC, picrocrocin] .
Key: 2.258

----------
test_details: Oral pharmacokinetics of CSE constituents in rat plasma (UFLC-MS/MS)
Format: in vivo, Sprague–Dawley rats
conditions: male, Sprague-Dawley, single oral CSE 40 mg/kg, n = 6, mean ± SEM
attribute_measured: AUC(0-t) (ng·h/mL)
Respond numerically; units are ng·h/mL and should not be typed.

For orientation, consider the following solved cases.
molecule	scale_unit	AUC(0-t)
CC1=C(C=O)C(C)(C)C[C@H](O[C@@H]2O[C@H](CO)[C@@H](O)[C@H](O)[C@H]2O)C1 [PIC, picrocrocin]	ng·h/mL	3690
CC(/C=C/C=C(\C)C(=O)OC1OC(COC2OC(CO)C(O)C(O)C2O)C(O)C(O)C1O)=C\C=C\C=C(C)\C=C\C=C(/C)C(=O)OC1OC(COC2OC(CO)C(O)C(O)C2O)C(O)C(O)C1O (stereo not drawn) [T4C, trans-4-GG-crocin]	ng·h/mL	277

Moving on to another molecule below.
Exercise: Specify measured AUC(0-t) for CC(=C/C=C/C=C(C)/C=C/C=C(\C)C(=O)OC1OC(COC2OC(CO)C(O)C(O)C2O)C(O)C(O)C1O)/C=C/C=C(\C)C(=O)OC1OC(COC2OC(CO)C(O)C(O)C2O)C(O)C(O)C1O (stereo not drawn) [C4C, cis-4-GG-crocin] .
Key: 396

----------
test_details: Oral pharmacokinetics of CSE constituents in rat plasma (UFLC-MS/MS)
Format: in vivo, Sprague–Dawley rats
conditions: male, Sprague-Dawley, rat, plasma, po, 40 mg/kg, single oral CSE 40 mg/kg, n = 6, mean ± SEM
attribute_measured: half-life (h)
Respond numerically; units are h and should not be typed.

For orientation, consider the following solved cases.
compound	half-life (h)
CC(=C/C=C/C=C(C)/C=C/C=C(\C)C(=O)OC1OC(COC2OC(CO)C(O)C(O)C2O)C(O)C(O)C1O)/C=C/C=C(\C)C(=O)OC1OC(COC2OC(CO)C(O)C(O)C2O)C(O)C(O)C1O (stereo not drawn) [C4C, cis-4-GG-crocin]	1.57
CC(/C=C/C=C(\C)C(=O)OC1OC(CO)C(O)C(O)C1O)=C\C=C\C=C(C)\C=C\C=C(/C)C(=O)OC1OC(CO)C(O)C(O)C1O (stereo not drawn) [T2C, trans-2-gg-crocin]	5.75
CC(/C=C/C=C(\C)C(=O)OC1OC(CO)C(O)C(O)C1O)=C\C=C\C=C(C)\C=C\C=C(/C)C(=O)OC1OC(COC2OC(CO)C(O)C(O)C2O)C(O)C(O)C1O (stereo not drawn) [T3C, trans-3-Gg-crocin]	4.6
CC(/C=C/C=C(\C)C(=O)OC1OC(COC2OC(CO)C(O)C(O)C2O)C(O)C(O)C1O)=C\C=C\C=C(C)\C=C\C=C(/C)C(=O)OC1OC(COC2OC(CO)C(O)C(O)C2O)C(O)C(O)C1O (stereo not drawn) [T4C, trans-4-GG-crocin]	3.36

Moving on to another compound below.
Exercise: Specify measured half-life for CC1=C(C=O)C(C)(C)C[C@H](O[C@@H]2O[C@H](CO)[C@@H](O)[C@H](O)[C@H]2O)C1 .
Key: 0.793

----------
test_details: Oral pharmacokinetics of CSE constituents in rat plasma (UFLC-MS/MS)
Format: in vivo, Sprague–Dawley rats
conditions: male, Sprague-Dawley, rat, plasma, po, 40 mg/kg, single oral CSE 40 mg/kg, n = 6, mean ± SEM, read-out: Tmax
As shown below, each of these molecules has a reported Tmax value.
Respond numerically; units are h and should not be typed.

molecule	Tmax / h
CC(=C/C=C/C=C(C)/C=C/C=C(\C)C(=O)OC1OC(COC2OC(CO)C(O)C(O)C2O)C(O)C(O)C1O)/C=C/C=C(\C)C(=O)OC1OC(COC2OC(CO)C(O)C(O)C2O)C(O)C(O)C1O (stereo not drawn) [C4C, cis-4-GG-crocin]	3.25
CC(/C=C/C=C(\C)C(=O)OC1OC(CO)C(O)C(O)C1O)=C\C=C\C=C(C)\C=C\C=C(/C)C(=O)OC1OC(COC2OC(CO)C(O)C(O)C2O)C(O)C(O)C1O (stereo not drawn) [T3C, trans-3-Gg-crocin]	3.5

Exercise: Specify measured Tmax for CC(/C=C/C=C(\C)C(=O)O)=C\C=C\C=C(C)\C=C\C=C(/C)C(=O)O [TCT, trans crocetin] .
Key: 6.83

----------
test_details: Oral pharmacokinetics of CSE constituents in rat plasma (UFLC-MS/MS)
Type: in vivo, Sprague–Dawley rats
conditions: male, Sprague-Dawley, single oral CSE 40 mg/kg, n = 6, mean ± SEM
As shown below, each of these molecules has a reported AUC(0-t) value.
Returns: string containing the number followed by the unit.

molecule	attribute_measured	test_result
CC(/C=C/C=C(\C)C(=O)OC1OC(CO)C(O)C(O)C1O)=C\C=C\C=C(C)\C=C\C=C(/C)C(=O)OC1OC(COC2OC(CO)C(O)C(O)C2O)C(O)C(O)C1O (stereo not drawn) [T3C, trans-3-Gg-crocin]	AUC(0-t)	20.4 ng·h/mL

Exercise: Specify measured AUC(0-t) for CC(/C=C/C=C(\C)C(=O)OC1OC(CO)C(O)C(O)C1O)=C\C=C\C=C(C)\C=C\C=C(/C)C(=O)OC1OC(CO)C(O)C(O)C1O (stereo not drawn) [T2C, trans-2-gg-crocin] .
Key: 1530 ng·h/mL

Exercise: Specify measured AUC(0-t) for CC(/C=C/C=C(\C)C(=O)O)=C\C=C\C=C(C)\C=C\C=C(/C)C(=O)O [TCT, trans crocetin] .
Key: 23600 ng·h/mL

Source of measurements: paper PMC8005090
